tgt: CD80/PD-L1 binding (Homo sapiens)
Construct: 10698-H08H-100 (His-CD80)
Sequence (Q9NZQ7 19-239 limits assumed): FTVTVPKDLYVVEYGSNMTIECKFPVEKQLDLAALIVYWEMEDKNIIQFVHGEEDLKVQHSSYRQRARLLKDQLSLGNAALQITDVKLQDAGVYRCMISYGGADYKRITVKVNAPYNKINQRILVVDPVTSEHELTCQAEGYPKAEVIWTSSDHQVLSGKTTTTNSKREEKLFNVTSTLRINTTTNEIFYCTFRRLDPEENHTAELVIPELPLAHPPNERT
method: HTRF inhibition of CD80/PD-L1 binding in vitro
assay_context: His-CD80 100 nM, PD-L1-Fc 2 nM, read-out: IC50 inhibiting CD80/PD-L1 binding in vitro
pIC50: −log10 of the molar value.
measurement_name: pIC50

Illustrative cases are given below, each with its answer.
compound	pIC50
[2H]C([2H])([2H])OCC12CCC(CCN3CCc4c(nc(C(=O)Nc5cccc(-c6cccc(NC(=O)c7nc8c(n7C([2H])([2H])[2H])CCN(CCC79CCC(C(=O)O)(CC7)C9)C8)c6Cl)c5F)n4C([2H])([2H])[2H])C3)(CC1)C2 (single isomer, unassigned)	8.71
[2H]C([2H])([2H])n1c(C(=O)Nc2cccc(-c3cccc(NC(=O)c4nc5c(n4C([2H])([2H])[2H])CCN(CCC46CCC(C(=O)O)(CC4)C6)C5)c3Cl)c2Cl)nc2c1CCN(CCC13CCC(COC)(CC1)C3)C2	9.02
[2H]C([2H])([2H])n1c(C(=O)Nc2cccc(-c3cccc(NC(=O)c4nc5c(n4C([2H])([2H])[2H])CCN(CCC46CCC(COC)(CC4)C6)C5)c3Cl)c2C)nc2c1CCN(CCC13CCC(C(=O)O)(CC1)C3)C2	8.53
[2H]C([2H])([2H])OCC12CCC(CCN3CCc4c(nc(C(=O)Nc5cccc(-c6cccc(NC(=O)c7nc8c(n7C([2H])([2H])[2H])CCN(CCC79CCC(C(=O)O)(CC7)C9)C8)c6Cl)c5C)n4C([2H])([2H])[2H])C3)(CC1)C2	8.47

[1] [2H]C([2H])([2H])OCC12CCC(CCN3CCc4c(nc(C(=O)Nc5cccc(-c6cccc(NC(=O)c7nc8c(n7C([2H])([2H])[2H])CCN(CCC79CCC(C(=O)O)(CC7)C9)C8)c6C)c5Cl)n4C([2H])([2H])[2H])C3)(CC1)C2
[2] [2H]C([2H])([2H])n1c(C(=O)Nc2cccc(-c3cccc(NC(=O)c4nc5c(n4C([2H])([2H])[2H])CCN(CCC46CCC(C(=O)O)(CC4)C6)C5)c3Cl)c2F)nc2c1CCN(CCC13CCC(COC)(CC1)C3)C2 (single isomer, unassigned)
Which entry has a larger number for pIC50, 1 or 2 ? Choose, then provide that item's label.
2
(2: 8.75, 1: 8.49)

[A] [2H]C([2H])([2H])n1c(C(=O)Nc2cccc(-c3cccc(NC(=O)c4nc5c(n4C([2H])([2H])[2H])CCN(CCC46CCC(C(=O)O)(CC4)C6)C5)c3Cl)c2C)nc2c1CCN(CCC13CCC(COC)(CC1)C3)C2
[B] [2H]C([2H])([2H])OCC12CCC(CCN3CCc4c(nc(C(=O)Nc5cccc(-c6cccc(NC(=O)c7nc8c(n7C)CCN(CCC79CCC(C(=O)O)(CC7)C9)C8)c6C)c5Cl)n4C)C3)(CC1)C2
For the pair A and B , which entry has the numerically smaller recorded pIC50? Choose, then provide that item's label.
A
(A: 8.37, B: 8.75)

---

method: Tumor tissue distribution assay in MC38-PD-L1 tumor-bearing mice
Type: in vivo, B-hPD-1/hPD-L1 humanized mice
assay_context: 4 h after administration on the 18th day, 50 mg/kg oral once/day
measurement_name: Ratio of I-1 to control molecule (tumor tissue concentration)

Illustrative cases are given below, each with its answer.
molecule	quantitative_result
Cn1c(C(=O)Nc2cccc(-c3cccc(NC(=O)c4nc5c(n4C)CCN(CC46CCC(C(=O)O)(CC4)C6)C5)c3Cl)c2Cl)nc2c1CCN(CCO)C2 [Example 180]	8.7
Cc1c(Nc2nccc3cc(CN4CC[C@@H](O)C4)cnc23)cccc1-c1cccc(-c2nc3cc(CN4CC[C@@H](C(=O)O)C4)cc(C#N)c3o2)c1C [Compound 14 (INCB086550)]	5.9

[I] Cn1c(C(=O)Nc2cccc(-c3cccc(NC(=O)c4nc5c(n4C)CCN(CCC46CCC(C(=O)O)(CC4)C6)C5)c3Cl)c2Cl)nc2c1CCN(CCC13CCC(C(=O)O)(CC1)C3)C2 [Example 17]
[II] [2H]C([2H])([2H])OCC12CCC(CCN3CCc4c(nc(C(=O)Nc5cccc(-c6cccc(NC(=O)c7nc8c(n7C)CCN(CCC79CCC(C(=O)O)(CC7)C9)C8)c6Cl)c5Cl)n4C)C3)(CC1)C2 [Compound I-1]
Which entry has a larger number for Ratio of I-1 to control molecule (tumor tissue concentration), I or II ? Choose, then provide that item's label.
I

---

method: Tumor tissue distribution assay in MC38-PD-L1 tumor-bearing mice
Assay type: in vivo, B-hPD-1/hPD-L1 humanized mice
assay_context: female, B-hPD-1/hPD-L1 humanized, mouse, tumor tissue; 24 h after administration on the 18th day, 50 mg/kg oral once/day
measurement_name: concentration at 24 h (ng/g)

substance_smiles	quantitative_result
Cn1c(C(=O)Nc2cccc(-c3cccc(NC(=O)c4nc5c(n4C)CCN(CCC46CCC(C(=O)O)(CC4)C6)C5)c3Cl)c2Cl)nc2c1CCN(CCC13CCC(C(=O)O)(CC1)C3)C2	1000

[I] Cn1c(C(=O)Nc2cccc(-c3cccc(NC(=O)c4nc5c(n4C)CCN(CC46CCC(C(=O)O)(CC4)C6)C5)c3Cl)c2Cl)nc2c1CCN(CCO)C2
[II] Cc1c(Nc2nccc3cc(CN4CC[C@@H](O)C4)cnc23)cccc1-c1cccc(-c2nc3cc(CN4CC[C@@H](C(=O)O)C4)cc(C#N)c3o2)c1C
[III] [2H]C([2H])([2H])OCC12CCC(CCN3CCc4c(nc(C(=O)Nc5cccc(-c6cccc(NC(=O)c7nc8c(n7C)CCN(CCC79CCC(C(=O)O)(CC7)C9)C8)c6Cl)c5Cl)n4C)C3)(CC1)C2
Hey, quick one: sort these by concentration at 24 h, low to high? Rank the items, then write their labels in that order.
I, II, III

---

method: Tumor tissue distribution assay in MC38-PD-L1 tumor-bearing mice
Type: in vivo, B-hPD-1/hPD-L1 humanized mice
assay_context: female, B-hPD-1/hPD-L1 humanized, mouse, tumor tissue; 4 h after administration on the 18th day, 50 mg/kg oral once/day
measurement_name: concentration at 4 h (ng/g)

compound	measurement_name	units_symbol	quantitative_result
Cn1c(C(=O)Nc2cccc(-c3cccc(NC(=O)c4nc5c(n4C)CCN(CC46CCC(C(=O)O)(CC4)C6)C5)c3Cl)c2Cl)nc2c1CCN(CCO)C2 [Example 180]	concentration at 4 h	ng/g	4500

[A] Cc1c(Nc2nccc3cc(CN4CC[C@@H](O)C4)cnc23)cccc1-c1cccc(-c2nc3cc(CN4CC[C@@H](C(=O)O)C4)cc(C#N)c3o2)c1C [Compound 14 (INCB086550)]
[B] [2H]C([2H])([2H])OCC12CCC(CCN3CCc4c(nc(C(=O)Nc5cccc(-c6cccc(NC(=O)c7nc8c(n7C)CCN(CCC79CCC(C(=O)O)(CC7)C9)C8)c6Cl)c5Cl)n4C)C3)(CC1)C2 [Compound I-1]
For the pair A and B , which entry has the numerically smaller recorded concentration at 4 h? Choose, then provide that item's label.
A

---

System: PD-1/PD-L1-mediated T cell activation inhibitory signal
method: CHO-PD-L1-CD3L / Jurkat-PD-1-NFAT co-culture luciferase reporter assay
Assay type: cell-based
assay_context: Homo sapiens, co-culture 6 h, read-out: EC50 blocking PD-1/PD-L1-mediated T cell activation inhibitory signal
measurement_name: EC50 (nM)

compound	tgt	measurement_name	quantitative_result
[2H]C([2H])([2H])OCC12CCC(CCN3CCc4c(nc(C(=O)Nc5cccc(-c6cccc(NC(=O)c7nc8c(n7C)CCN(CCC79CCC(C(=O)O)(CC7)C9)C8)c6Cl)c5Cl)n4C)C3)(CC1)C2	PD-1/PD-L1-mediated T cell activation inhibitory signal	EC50	13.8

[A] [2H]C([2H])([2H])n1c(C(=O)Nc2cccc(-c3cccc(NC(=O)c4nc5c(n4C([2H])([2H])[2H])CCN(CCC46CCC(COC)(CC4)C6)C5)c3Cl)c2C)nc2c1CCN(CCC13CCC(C(=O)O)(CC1)C3)C2
[B] [2H]c1c([2H])c(NC(=O)c2nc3c(n2C)CCN(CCC24CCC(COC([2H])([2H])[2H])(CC2)C4)C3)c(F)c(-c2c([2H])c([2H])c([2H])c(NC(=O)c3nc4c(n3C)CCN(CCC35CCC(C(=O)O)(CC3)C5)C4)c2Cl)c1[2H] (single isomer, unassigned)
For the pair A and B , which entry has the numerically smaller recorded EC50? Choose, then provide that item's label.
B

---

tgt: PD-1/PD-L1 binding (Homo sapiens, UniProt Q9NZQ7)
Construct: 10377-H08H-50 (His-PD-1)
method: HTRF inhibition of PD-1/PD-L1 binding in vitro
assay_context: His-PD-1 100 nM, PD-L1-Fc 2 nM, read-out: IC50 inhibiting PD-1/PD-L1 binding in vitro
measurement_name: IC50 (nM)

Illustrative cases are given below, each with its answer.
molecule	quantitative_result
[2H]C([2H])([2H])OCC12CCC(CCN3CCc4c(nc(C(=O)Nc5cccc(-c6cccc(NC(=O)c7nc8c(n7C)CCN(CCC79CCC(C(=O)O)(CC7)C9)C8)c6Cl)c5F)n4C)C3)(CC1)C2 (single isomer, unassigned) [Compound I-2]	1.52
[2H]C([2H])([2H])OCC12CCC(CCN3CCc4c(nc(C(=O)Nc5cccc(-c6cccc(NC(=O)c7nc8c(n7C)CCN(CCC79CCC(C(=O)O)(CC7)C9)C8)c6Cl)c5C)n4C)C3)(CC1)C2 [Compound I-4]	2.8

[P] [2H]C([2H])([2H])OCC12CCC(CCN3CCc4c(nc(C(=O)Nc5cccc(-c6cccc(NC(=O)c7nc8c(n7C([2H])([2H])[2H])CCN(CCC79CCC(C(=O)O)(CC7)C9)C8)c6C)c5Cl)n4C([2H])([2H])[2H])C3)(CC1)C2 [Compound I-11]
[Q] [2H]C([2H])([2H])n1c(C(=O)Nc2cccc(-c3cccc(NC(=O)c4nc5c(n4C([2H])([2H])[2H])CCN(CCC46CCC(C(=O)O)(CC4)C6)C5)c3Cl)c2Cl)nc2c1CCN(CCC13CCC(COC)(CC1)C3)C2 [Compound I-6]
Which entry has a larger number for IC50, P or Q ? Choose, then provide that item's label.
P
(P: 4.21 nM, Q: 1 nM)
